Consider the following MIC values measured on V. cholerae SG24.
One number for each entry, in µg/mL.

CC1(C)S[C@@H]2[C@H](NC(=O)[C@H](N)c3ccccc3)C(=O)N2[C@H]1C(=O)O [Ampicillin, reference compound] ... 16

The recorded MIC for CN(C)[C@@H]1C(O)=C(C(N)=O)C(=O)[C@@]2(O)C(O)=C3C(=O)c4c(O)cccc4[C@@](C)(O)[C@H]3C[C@@H]12 [Tetracycline, reference compound] is 0.5

====

- PROCEDURE TEXT: MTT cytotoxicity assay
- Type: cell-based
- PROTOCOL CONDITIONS: African green monkey, Vero cells, normal non-cancer cells, mean ± SD, read-out: Cytotoxicty (LC50) Vero cells
Task for the reader: assign each of the following compounds its reported CC50 at 24 h.
Provide a numeric answer, followed by its unit.

C=C1[C@@H](C)C2[C@H](Cc3ccccc3)NC(=O)[C@]23[C@H](O)/C=C/[C@](C)(OC)C[C@@H](C)C/C=C/[C@@H]3[C@@H]1O (stereo partly shown) [Compound 1, 18-metoxycytochalasin J] ... 93 µg/mL
O=c1[nH]c(=O)n([C@@H]2O[C@H](CO)[C@@H](O)[C@H]2O)cc1F [Compound 5-FU, 5-Fluorouridine, reference compound] ... 4.63 µg/mL
C=C1[C@@H](C)C2[C@H](Cc3ccccc3)NC(=O)[C@@]23C(/C=C/C[C@H](C)C[C@@](C)(O)/C=C/[C@H]3OC(C)=O)[C@@H]1O (stereo partly shown) [Compound 2, cytochalasin H] ... 129 µg/mL

# compound C=C1[C@@H](C)C2[C@H](Cc3ccccc3)NC(=O)[C@@]23C(/C=C/C[C@H](C)C[C@@](C)(O)/C=C/[C@H]3O)[C@@H]1O (stereo partly shown) [Compound 3, cytochalasin J] ; its CC50 at 24 h = 73.9 µg/mL

====

Kindly supply the reported MBC values for the records listed here.
- System: V. cholerae SG24
- PROCEDURE TEXT: Broth microdilution MIC/MBC
- Assay type: cell-based, Vibrio cholerae
- PROTOCOL CONDITIONS: Vibrio cholerae, 99.9% reduction in CFU after 24 h
- Description: A total of six bacterial strains were tested for their susceptibility to compounds and these strains were taken from our laboratory collection (kindly provided by Dr. T. Ramamurthy, NICED, Kolkata). […] Suspensions of bacteria were prepared in MHB from cells arrested during their logarithmic phase growth (4 h) on MHB at 37 °C. The turbidity of the microbial suspension was read spectrophotometrically at 600 nm and adjusted to an OD of 0.1 with MHB, which is equivalent to 1 × 10^8 CFU/mL. […]

Reference set, count: 4
CC1(C)S[C@@H]2[C@H](NC(=O)[C@H](N)c3ccccc3)C(=O)N2[C@H]1C(=O)O [Ampicillin, reference compound] ... 16 µg/mL
C=C1[C@@H](C)C2[C@H](Cc3ccccc3)NC(=O)[C@]23[C@H](O)/C=C/[C@](C)(OC)C[C@@H](C)C/C=C/[C@@H]3[C@@H]1O (some centres unmarked) [Compound 1, 18-metoxycytochalasin J] ... > 512 µg/mL
CN(C)[C@@H]1C(O)=C(C(N)=O)C(=O)[C@@]2(O)C(O)=C3C(=O)c4c(O)cccc4[C@@](C)(O)[C@H]3C[C@@H]12 [Tetracycline, reference compound] ... 1 µg/mL
C=C1[C@@H](C)C2[C@H](Cc3ccccc3)NC(=O)[C@@]23C(/C=C/C[C@H](C)C[C@@](C)(O)/C=C/[C@H]3O)[C@@H]1O (some centres unmarked) [Compound 3, cytochalasin J] ... > 512 µg/mL

Proceed to the following item.
For this compound ( C=C1[C@@H](C)C2[C@H](Cc3ccccc3)NC(=O)[C@@]23C(/C=C/C[C@H](C)C[C@@](C)(O)/C=C/[C@H]3OC(C)=O)[C@@H]1O (some centres unmarked) [Compound 2, cytochalasin H] ), measured MBC is > 512 µg/mL

====

Task for the reader: assign each of the following compounds its reported hemolysis at 1 h, 512 μg/mL.
- PROCEDURE TEXT: Hemolytic assay
- Format: cell-based
- PROTOCOL CONDITIONS: male, 1% human red blood cell suspension, 512 μg/mL (highest concentration tested), 1% human red blood cells, PBS pH 7.4, 37 °C

CN(C)[C@@H]1C(O)=C(C(N)=O)C(=O)[C@@]2(O)C(O)=C3C(=O)c4c(O)cccc4[C@@](C)(O)[C@H]3C[C@@H]12 [Tetracycline, reference compound] ... < 10%
C=C1[C@@H](C)C2[C@H](Cc3ccccc3)NC(=O)[C@@]23C(/C=C/C[C@H](C)C[C@@](C)(O)/C=C/[C@H]3OC(C)=O)[C@@H]1O (stereo partly shown) ... 20.1%
C=C1[C@@H](C)C2[C@H](Cc3ccccc3)NC(=O)[C@@]23C(/C=C/C[C@H](C)C[C@@](C)(O)/C=C/[C@H]3O)[C@@H]1O (stereo partly shown) ... < 10%

Next compound, please.
hemolysis at 1 h, 512 μg/mL recorded for this compound, C=C1[C@@H](C)C2[C@H](Cc3ccccc3)NC(=O)[C@]23[C@H](O)/C=C/[C@](C)(OC)C[C@@H](C)C/C=C/[C@@H]3[C@@H]1O (stereo partly shown) , is < 10%

====

Read-out record for S. aureus ATCC 25923: MIC
Numbers only, in µg/mL.

Here is how some compounds turned out for MIC.
C=C1[C@@H](C)C2[C@H](Cc3ccccc3)NC(=O)[C@@]23C(/C=C/C[C@H](C)C[C@@](C)(O)/C=C/[C@H]3OC(C)=O)[C@@H]1O (some centres unmarked) [Compound 2, cytochalasin H] ... 256
C=C1[C@@H](C)C2[C@H](Cc3ccccc3)NC(=O)[C@@]23C(/C=C/C[C@H](C)C[C@@](C)(O)/C=C/[C@H]3O)[C@@H]1O (some centres unmarked) [Compound 3, cytochalasin J] ... 512
C=C1[C@@H](C)C2[C@H](Cc3ccccc3)NC(=O)[C@]23[C@H](O)/C=C/[C@](C)(OC)C[C@@H](C)C/C=C/[C@@H]3[C@@H]1O (some centres unmarked) [Compound 1, 18-metoxycytochalasin J] ... 128

Report MIC for each item below.
1. CC1(C)S[C@@H]2[C@H](NC(=O)[C@H](N)c3ccccc3)C(=O)N2[C@H]1C(=O)O [Ampicillin, reference compound]
2. CN(C)[C@@H]1C(O)=C(C(N)=O)C(=O)[C@@]2(O)C(O)=C3C(=O)c4c(O)cccc4[C@@](C)(O)[C@H]3C[C@@H]12 [Tetracycline, reference compound]

1. 16
2. 16

====

Please provide measured CC50 at 24 h for the entries that follow.
- PROCEDURE TEXT: MTT cytotoxicity assay
- Format: cell-based, Human
- PROTOCOL CONDITIONS: human, HeLa cells; MTT, 24 h, mean ± SD; read-out: Cytotoxicty (LC50) HeLa cells
State the value, then name its unit.

Example compounds with recorded CC50 at 24 h:
O=c1[nH]c(=O)n([C@@H]2O[C@H](CO)[C@@H](O)[C@H]2O)cc1F [Compound 5-FU, 5-Fluorouridine, reference compound] ... 0.25 µg/mL
C=C1[C@@H](C)C2[C@H](Cc3ccccc3)NC(=O)[C@@]23C(/C=C/C[C@H](C)C[C@@](C)(O)/C=C/[C@H]3OC(C)=O)[C@@H]1O (stereo partly shown) [Compound 2, cytochalasin H] ... 35.7 µg/mL
C=C1[C@@H](C)C2[C@H](Cc3ccccc3)NC(=O)[C@@]23C(/C=C/C[C@H](C)C[C@@](C)(O)/C=C/[C@H]3O)[C@@H]1O (stereo partly shown) [Compound 3, cytochalasin J] ... 3.66 µg/mL

Pending compound:
Kindly note the recorded CC50 at 24 h for C=C1[C@@H](C)C2[C@H](Cc3ccccc3)NC(=O)[C@]23[C@H](O)/C=C/[C@](C)(OC)C[C@@H](C)C/C=C/[C@@H]3[C@@H]1O (stereo partly shown) [Compound 1, 18-metoxycytochalasin J] , which is 8.18 µg/mL

====

- Test system: V. cholerae SG24
QUANTITY KIND: MIC

Before answering, review these 2 worked examples.
C=C1[C@@H](C)C2[C@H](Cc3ccccc3)NC(=O)[C@@]23C(/C=C/C[C@H](C)C[C@@](C)(O)/C=C/[C@H]3O)[C@@H]1O (stereo partly drawn) ... > 512 µg/mL
C=C1[C@@H](C)C2[C@H](Cc3ccccc3)NC(=O)[C@]23[C@H](O)/C=C/[C@](C)(OC)C[C@@H](C)C/C=C/[C@@H]3[C@@H]1O (stereo partly drawn) ... > 512 µg/mL

Field MIC (entry C=C1[C@@H](C)C2[C@H](Cc3ccccc3)NC(=O)[C@@]23C(/C=C/C[C@H](C)C[C@@](C)(O)/C=C/[C@H]3OC(C)=O)[C@@H]1O (stereo partly drawn) ) reads > 512 µg/mL
